Reported pKi on Substance-K receptor (Homo sapiens) for assorted compounds, compiled from publications.
TARGET DESC: Substance-K receptor (Homo sapiens)
Sequence (P21452 whole entry): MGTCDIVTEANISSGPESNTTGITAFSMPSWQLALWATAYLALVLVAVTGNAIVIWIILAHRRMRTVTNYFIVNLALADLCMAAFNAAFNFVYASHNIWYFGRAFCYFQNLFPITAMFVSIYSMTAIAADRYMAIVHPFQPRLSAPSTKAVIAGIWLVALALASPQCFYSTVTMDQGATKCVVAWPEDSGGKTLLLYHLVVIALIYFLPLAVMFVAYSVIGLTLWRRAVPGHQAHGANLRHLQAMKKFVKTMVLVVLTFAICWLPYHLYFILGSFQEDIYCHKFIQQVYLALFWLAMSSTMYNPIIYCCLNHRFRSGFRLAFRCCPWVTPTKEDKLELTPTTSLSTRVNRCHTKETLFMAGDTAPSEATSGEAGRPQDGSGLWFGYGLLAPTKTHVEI
Scale explanation: pKi corresponds to minus log10 of a concentration expressed in moles per litre.

Here is how some compounds turned out for pKi.
COC(=O)[C@@H](NC(=O)c1cc(-c2ccccc2)nc2ccccc12)c1ccccc1: 5.91
O=C(C1=C(c2ccccc2)OC2OC(COCc3ccccc3)C(OCc3ccccc3)C(OCc3ccccc3)C2[S+]1[O-])c1ccccc1 (configuration not stated): 6.10
Cc1ccc2cc(C(=O)NC3(C(=O)N[C@@H](CCCN4CCN(S(=O)(=O)C(C)C)CC4)Cc4ccccc4)CCCC3)sc2c1: 9.30
O=C1CCC(=O)NC(Cc2c[nH]c3ccccc23)C(=O)N[C@@H](Cc2ccccc2)C(=O)N[C@H](Cc2ccccc2)CN1 (single isomer, unassigned): 8.70
O=C(NC1(C(=O)N[C@H](Cc2ccccc2)C(=O)NCCCN2CCCC2)CCCCC1)c1cc2ccccc2s1: 8.40

Query CC(C)(C)c1ccc(Oc2ccc(NC(=O)N[C@@H](Cc3ccccc3)C(=O)NCCCN3CCOCC3)cc2)cc1 yields pKi of 7.30

Query CN(CC(CCN1CCC(CO)CC1)c1ccc(Cl)c(Cl)c1)C(=O)c1ccccc1 (configuration not stated) yields pKi of 6.85

###

Sequence of the target: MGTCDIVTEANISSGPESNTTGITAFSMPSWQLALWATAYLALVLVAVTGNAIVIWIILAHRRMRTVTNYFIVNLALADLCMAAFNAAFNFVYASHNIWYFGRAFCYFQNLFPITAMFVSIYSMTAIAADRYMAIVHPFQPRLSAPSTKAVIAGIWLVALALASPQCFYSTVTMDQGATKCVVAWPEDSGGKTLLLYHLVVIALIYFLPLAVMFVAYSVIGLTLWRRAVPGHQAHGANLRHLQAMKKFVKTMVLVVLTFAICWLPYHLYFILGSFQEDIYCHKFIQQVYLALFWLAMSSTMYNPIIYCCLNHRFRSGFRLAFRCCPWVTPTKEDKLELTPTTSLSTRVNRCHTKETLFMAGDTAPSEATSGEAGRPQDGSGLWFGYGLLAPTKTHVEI
Reported pKi on the protein given by its sequence for assorted compounds, compiled from publications.
Scale explanation: pKi corresponds to minus log10 of a concentration expressed in moles per litre.

CO/N=C(\COCc1cc(C(F)(F)F)cc(C(F)(F)F)c1)C(CCN1CCC(CN2CCCCC2CO)CC1)c1ccc(Cl)c(Cl)c1 (centres undefined): 7.28
O=C1CCC(=O)N[C@@H](Cc2c[nH]c3ccccc23)C(=O)N[C@@H](Cc2ccccc2)C(=O)N[C@H](Cc2ccc(C(F)(F)F)cc2)CN1: 7.70

Query CO/N=C(\COCc1cc(C(F)(F)F)cc(C(F)(F)F)c1)C(CCN1CCN(CC(=O)N(C(C)C)C(C)C)CC1)c1ccc(Cl)c(Cl)c1 (centres undefined) yields pKi of 6.77

###

Protein target, amino acids: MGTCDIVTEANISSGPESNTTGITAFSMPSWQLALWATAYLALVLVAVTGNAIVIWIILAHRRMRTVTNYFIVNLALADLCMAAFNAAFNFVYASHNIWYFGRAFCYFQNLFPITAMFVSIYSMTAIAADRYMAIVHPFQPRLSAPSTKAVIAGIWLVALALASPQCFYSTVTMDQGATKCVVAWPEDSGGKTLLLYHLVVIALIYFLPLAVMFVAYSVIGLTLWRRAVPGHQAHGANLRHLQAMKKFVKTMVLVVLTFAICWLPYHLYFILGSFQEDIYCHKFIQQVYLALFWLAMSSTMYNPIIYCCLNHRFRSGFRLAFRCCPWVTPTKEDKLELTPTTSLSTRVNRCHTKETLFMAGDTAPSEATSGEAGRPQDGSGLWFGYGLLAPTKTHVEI
Reported Ki on the protein given by its sequence for assorted compounds, compiled from publications.
Please respond with the number in nM and leave the unit unwritten.

C[C@H](NC(=O)c1c(CN2CCC(N)CC2)c(-c2ccccc2)nc2ccccc12)C1CCCCC1: 33
CC(C)(Oc1ccc(-c2ccccc2)cc1)C(=O)N[C@@H](Cc1ccccc1)C(=O)NCCCN1CCOCC1: 7900

Then there is this compound:
Query CO/N=C(\COCc1cc(C(F)(F)F)cc(C(F)(F)F)c1)C(CCN1CCN(CC(=O)N2CCCC3CCCCC32)CC1)c1ccc(Cl)c(Cl)c1 (centres undefined) yields Ki of 477

###

TARGET DESC: Substance-K receptor (Homo sapiens)
Sequence (P21452 whole entry): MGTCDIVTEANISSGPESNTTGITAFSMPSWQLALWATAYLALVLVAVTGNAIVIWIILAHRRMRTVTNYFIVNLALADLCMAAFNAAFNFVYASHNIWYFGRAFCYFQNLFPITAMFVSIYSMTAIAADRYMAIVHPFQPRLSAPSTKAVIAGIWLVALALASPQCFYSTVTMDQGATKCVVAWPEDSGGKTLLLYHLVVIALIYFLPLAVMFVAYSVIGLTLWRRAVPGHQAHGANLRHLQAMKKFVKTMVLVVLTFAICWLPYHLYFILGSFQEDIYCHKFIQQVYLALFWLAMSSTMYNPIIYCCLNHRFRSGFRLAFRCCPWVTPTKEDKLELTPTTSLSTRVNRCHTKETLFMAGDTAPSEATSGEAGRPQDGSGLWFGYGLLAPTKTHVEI
pKi: −log10 of the molar value.
Reported pKi on Substance-K receptor (Homo sapiens) for assorted compounds, compiled from publications.

Here is how some compounds turned out for pKi.
CN1CCN(CCCNC(=O)[C@@H](Cc2ccccc2)NC(=O)C2(NC(=O)c3cc4ccccc4s3)CCc3ccccc32)CC1 (stereo in doubt; 48a): < 7.00
CCOC(=O)C1=C(C)OC2OC(CO)C(OCc3ccccc3)C(O)C2S1 (stereo not drawn): < 5.00

For the compound CC(C)(Oc1cccc(Cl)c1)C(=O)N[C@@H](Cc1ccccc1)C(=O)NCCCN1CCOCC1 , the measured pKi on Substance-K receptor (Homo sapiens) was < 6.00

###

Reported Ki on Substance-K receptor (Homo sapiens) for assorted molecules, compiled from publications.
Please respond with the number in nM and leave the unit unwritten.

Here is how some molecules turned out for Ki.
CC1CCCCN1CCCNC(=O)[C@H](Cc1ccccc1)NC(=O)C1(NC(=O)c2cc3ccccc3s2)CCCCC1 (stereo partly drawn): 7.94
CC(=O)NC1C(NC(=O)C[C@H]2CC(=O)N[C@@H](Cc3c[nH]c4ccccc34)C(=O)N[C@H](Cc3ccccc3)C(=O)N[C@H](Cc3ccccc3)CNC2=O)OC(CO)C(O)C1O (stereo partly drawn): 6.31

Then there is this molecule:
Query CCC(=O)C1CCN(CCC(CN(C)C(=O)c2ccccc2)c2ccc(Cl)c(Cl)c2)CC1 (stereo not drawn) yields Ki of 9.2

###

Reported Ki on Substance-K receptor (Homo sapiens, UniProt P21452) for assorted compounds, compiled from publications.

Here is how some compounds turned out for Ki.
O=C(Nc1ccc(Oc2ccc(C(F)(F)F)cc2)cc1)N[C@H](Cc1ccccc1)C(=O)NCCCN1CCOCC1: > 1000 nM
CC(C)c1ccc(OC(C)(C)C(=O)N[C@H](Cc2ccccc2)C(=O)NCCCN2CCOCC2)cc1: > 1000 nM
COC(=O)C(NC(=O)c1cc(-c2ccccc2)nc2ccccc12)c1ccccc1 (centres undefined): 2950 nM
CO/N=C(\COCc1cc(C(F)(F)F)cc(C(F)(F)F)c1)C(CCN1CCN(CC(=O)N2CCC(N(C)C)C2)CC1)c1ccc(Cl)c(Cl)c1 (centres undefined): 95 nM

Query O=C1C[C@@H](NC(=O)CN2CCC(N3CCCCC3)CC2)C(=O)NC[C@H](Cc2ccccc2)NC(=O)[C@H](Cc2ccccc2)NC(=O)[C@H](Cc2c[nH]c3ccccc23)N1 yields Ki of 0.398 nM

Query O=C(NC1(C(=O)N[C@H](Cc2ccccc2)C(=O)NCCCN2CCCC2)CCc2ccccc21)c1cc2ccccc2s1 (stereo in doubt; 46a) yields Ki of 6.31 nM

Query CN(C)CCNC(=O)C[C@@H]1CC(=O)N[C@@H](Cc2c[nH]c3ccccc23)C(=O)N[C@H](Cc2ccccc2)C(=O)N[C@H](Cc2ccccc2)CNC1=O yields Ki of 6.31 nM

Query Cc1ccc2cc(C(=O)NC3(C(=O)N[C@@H](CCCN4CCC(CCO)CC4)Cc4ccccc4)CCCC3)sc2c1 yields Ki of 2 nM

Query CC(C)N1CCN(Cc2c(-c3ccccc3)nc3ccccc3c2C(=O)N[C@@H](C)C2CCCCC2)CC1 yields Ki of 0.7 nM
